conditions: in water, 313.15 K
MEASURED_ATTRIBUTE: solubility (mole fraction)

INSERT INTO results (smiles_record, result) VALUES
  ('COc1ccc2cccc(CCNC(C)=O)c2c1', 0.00038);

----------
conditions: in n-propanol, 278.15 K
MEASURED_ATTRIBUTE: solubility (mole fraction)

INSERT INTO measurements (smiles_record, numeric_value) VALUES
  ('COc1ccc2cccc(CCNC(C)=O)c2c1', 0.00905);

----------
settings: in n-propyl acetate, 278.15 K
MEASURED_ATTRIBUTE: solubility (mole fraction)

INSERT INTO results (smiles_record, numeric_value) VALUES
  ('COc1ccc2cccc(CCNC(C)=O)c2c1', 0.00406);

----------
details: in n-propyl acetate, 308.15 K
MEASURED_ATTRIBUTE: solubility (mole fraction)

INSERT INTO results (smiles_record, measured_attribute, numeric_value) VALUES
  ('COc1ccc2cccc(CCNC(C)=O)c2c1', 'solubility (mole fraction)', 0.0364);

----------
conditions: in n-propanol, 288.15 K
MEASURED_ATTRIBUTE: solubility (mole fraction)

INSERT INTO measurements (smiles_record, numeric_value) VALUES
  ('COc1ccc2cccc(CCNC(C)=O)c2c1', 0.0201);

----------
conditions: in isopropanol, 318.15 K
MEASURED_ATTRIBUTE: solubility (mole fraction)

INSERT INTO results (smiles_record, numeric_value) VALUES
  ('COc1ccc2cccc(CCNC(C)=O)c2c1', 0.0893);

----------
details: in n-butyl acetate, 313.15 K
MEASURED_ATTRIBUTE: solubility (mole fraction)

INSERT INTO measurements (smiles_record, result) VALUES
  ('COc1ccc2cccc(CCNC(C)=O)c2c1', 0.038);

----------
settings: in n-propyl acetate, 313.15 K
MEASURED_ATTRIBUTE: solubility (mole fraction)

INSERT INTO measurements (smiles_record, numeric_value) VALUES
  ('COc1ccc2cccc(CCNC(C)=O)c2c1', 0.0466);

----------
details: in ethanol, 308.15 K
MEASURED_ATTRIBUTE: solubility (mole fraction)

INSERT INTO results (smiles_record, measured_attribute, result) VALUES
  ('COc1ccc2cccc(CCNC(C)=O)c2c1', 'solubility (mole fraction)', 0.0819);

----------
conditions: in n-pentyl acetate, 303.15 K
MEASURED_ATTRIBUTE: solubility (mole fraction)

INSERT INTO measurements (smiles_record, numeric_value) VALUES
  ('COc1ccc2cccc(CCNC(C)=O)c2c1', 0.0156);

----------
settings: in methanol, 283.15 K
MEASURED_ATTRIBUTE: solubility (mole fraction)

INSERT INTO measurements (smiles_record, numeric_value) VALUES
  ('COc1ccc2cccc(CCNC(C)=O)c2c1', 0.0264);

----------
conditions: in n-pentyl acetate, 293.15 K
MEASURED_ATTRIBUTE: solubility (mole fraction)

INSERT INTO measurements (smiles_record, numeric_value) VALUES
  ('COc1ccc2cccc(CCNC(C)=O)c2c1', 0.00601);

----------
details: in n-butyl acetate, 318.15 K
MEASURED_ATTRIBUTE: solubility (mole fraction)

INSERT INTO measurements (smiles_record, result) VALUES
  ('COc1ccc2cccc(CCNC(C)=O)c2c1', 0.0507);
